# Assay System: T1, PD-L1-HIS recombinant protein (human, UniProt Q9NZQ7 19-238, limits assumed)
# T1 construct: not shown: His tag
# T1 sequence (Q9NZQ7 19-238 limits assumed): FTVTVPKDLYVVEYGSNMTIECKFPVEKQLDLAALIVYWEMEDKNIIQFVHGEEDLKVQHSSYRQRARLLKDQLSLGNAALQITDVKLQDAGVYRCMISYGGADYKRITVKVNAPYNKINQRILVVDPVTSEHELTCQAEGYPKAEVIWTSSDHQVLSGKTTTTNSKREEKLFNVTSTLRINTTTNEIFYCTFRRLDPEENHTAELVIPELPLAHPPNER
# Assay Info: SPR (Biacore 8K), antibody captured on chip, PD-L1-HIS analyte 2.5-80 nM, 1:1 binding model
Task for the reader: assign each of the following binders its reported kon.
One number for each entry, in M⁻¹ s⁻¹.

Binder	Quantity Measured	Observed Measurement
AH02029 (antibody, human IgG1, V domains shown, also called mPD-L1Ab-5BM clone AH02029) VH: QVQLQESGPGLVKPSQTLSLTCTVTGYSITSGYTWHWIRQHPGKGLEWIGYIHYSGSTKYNPSLKSRVSISRDTSKNQFSLKLSSVTAADTAVYYCARNSLFASWGQGTLVTVSS VL: DIVLTQSPDSLAVSLGERATINCRASESVDTYGDSFMHWYQQKPGQPPKLLIYRASNLESGVPDRFSGSGSGTDFTLTISSLQAEDVAVYYCQQSNEAPYTFGGGTKLEIK	kon	213000

Q: Fill in: kon of AH01947 (antibody, human IgG1, V domains shown, also called mPD-L1Ab-CBM clone AH01947) VH: QVQLQESGPGLVKPSQTLSLTCTVSGYSITSGYTWHWIRQHPGKGLEWIGYIHYSGSTKYNPSLKSRVTISVDTSKNQFSLKLSSVTAADTAVYYCARNSLFASWGQGTLVTVSS VL: DIVLTQSPDSLAVSLGERATINCRASESVDTYGDSFMHWFQQKPGQPPKLLIYRASNLESGVPDRFSGSGSGTDFTLTISSLQAEDVAVYYCQQSNEAPYTFGGGTKLEIK is ___
Ans: 230000
